Measured Target: PI3K delta (Homo sapiens (Human))
Sequence (O00329 other isoform, or with tags, fused parts or gaps linker GGGGGG): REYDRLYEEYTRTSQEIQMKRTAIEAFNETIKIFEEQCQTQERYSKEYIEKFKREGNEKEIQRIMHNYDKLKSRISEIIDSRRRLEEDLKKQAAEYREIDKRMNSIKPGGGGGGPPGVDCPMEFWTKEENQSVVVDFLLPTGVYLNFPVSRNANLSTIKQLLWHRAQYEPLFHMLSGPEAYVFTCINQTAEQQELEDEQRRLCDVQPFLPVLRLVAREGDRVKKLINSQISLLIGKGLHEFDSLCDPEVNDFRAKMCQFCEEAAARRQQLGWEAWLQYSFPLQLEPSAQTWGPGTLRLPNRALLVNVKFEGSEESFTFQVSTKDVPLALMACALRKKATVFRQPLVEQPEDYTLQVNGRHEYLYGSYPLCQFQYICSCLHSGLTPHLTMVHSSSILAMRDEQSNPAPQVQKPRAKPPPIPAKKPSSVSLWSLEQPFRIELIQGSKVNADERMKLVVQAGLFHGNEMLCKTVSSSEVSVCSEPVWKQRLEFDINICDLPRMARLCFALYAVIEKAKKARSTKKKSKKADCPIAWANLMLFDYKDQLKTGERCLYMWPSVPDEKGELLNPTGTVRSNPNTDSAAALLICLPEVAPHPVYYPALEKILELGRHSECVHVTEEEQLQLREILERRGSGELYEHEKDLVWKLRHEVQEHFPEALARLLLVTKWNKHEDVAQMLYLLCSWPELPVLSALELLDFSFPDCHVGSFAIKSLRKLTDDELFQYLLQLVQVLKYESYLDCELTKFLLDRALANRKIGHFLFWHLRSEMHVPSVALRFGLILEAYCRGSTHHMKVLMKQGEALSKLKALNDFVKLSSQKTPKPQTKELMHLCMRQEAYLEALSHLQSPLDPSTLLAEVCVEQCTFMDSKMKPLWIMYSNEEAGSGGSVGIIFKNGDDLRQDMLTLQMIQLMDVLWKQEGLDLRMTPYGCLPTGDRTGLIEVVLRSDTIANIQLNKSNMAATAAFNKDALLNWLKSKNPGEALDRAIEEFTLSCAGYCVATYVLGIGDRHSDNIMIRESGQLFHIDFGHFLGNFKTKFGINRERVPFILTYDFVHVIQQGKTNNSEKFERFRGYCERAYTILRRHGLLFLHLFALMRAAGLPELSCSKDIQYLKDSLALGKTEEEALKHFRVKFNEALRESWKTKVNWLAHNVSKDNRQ
Method: Enzymatic PI3K delta isoform inhibition (lipid kinase activity, Kinase-Glo luminescence)
Format: biochemical
Run Conditions: Enzymatic assay
Metric Name: log10 of IC50 (log10 of the value in nM)
Please be aware that the numbers have been log10-transformed from IC50 in nM.

{"columns": ["Compound", "Measured Target", "log10 of IC50"],
 "data": [
  ["COc1ncc(N2CCOc3ccc(O[C@H]4CCN(C(=O)c5ccc(=O)[nH]c5)C4)cc32)cc1C", "PI3K delta (Homo sapiens (Human))", 0.90],
  ["COc1ncc(N2CCOc3ccc(O[C@H]4CCN(C(=O)c5cn(C)cn5)C4)cc32)cc1C#N [Example D1]", "PI3K delta (Homo sapiens (Human))", 0.70],
  ["COc1cc(N2CCOc3ccc(O[C@H]4CCN(C(=O)[C@H]5CC[C@H](O)CC5)C4)cc32)cnc1OC", "PI3K delta (Homo sapiens (Human))", 1.04]
]}

Respectfully, I request log10 of IC50 for each entry included below.
1. COc1ncc(N2CCOc3ccc(O[C@H]4CCN(C(=O)c5cnco5)C4)cc32)cc1C#N
2. CCC(=O)N1CC[C@H](Oc2ccc3c(c2)N(c2ccc(OC)c(OC)c2)CCO3)C1
3. Cc1cc(N2CCOc3ccc(O[C@H]4CCN(C(=O)c5ccncc5)C4)cc32)cnc1S(C)(=O)=O
4. CCC(=O)N1CC[C@H](Oc2ccc3c(c2)N(c2cncc(S(C)(=O)=O)c2)CCO3)C1
5. CS(=O)(=O)c1ncc(N2CCOc3ccc(O[C@H]4CCN(C(=O)C5CCOCC5)C4)cc32)cc1C(F)(F)F
6. COc1ncc(N2CCOc3ccc(O[C@H]4CCN(C(=O)c5cn(C)cn5)C4)cc32)cc1NS(C)(=O)=O
7. COc1ncc(N2CCOc3ccc(O[C@H]4CCN(C(=O)CS(C)(=O)=O)C4)cc32)cc1Cl
8. COc1ncc(N2CCOc3ccc(O[C@H]4CCN(C(=O)C5CCS(=O)(=O)CC5)C4)c(F)c32)cc1C(F)F

Solution:
1. 0.95
2. 3.15
3. 0.70
4. 1.89
5. 0.70
6. 1.18
7. 0.48
8. 0.70

Respectfully, I request log10 of IC50 for each entry included below.
1. COc1ncc(N2CCOc3ccc(O[C@H]4CCN(C(=O)c5ccn(C)c(=O)c5)C4)cc32)cc1C#N
2. COc1ncc(N2CCOc3ccc(O[C@H]4CCN(C(=O)C5COCCO5)C4)cc32)cc1F (single isomer, unassigned) [Example H15]
3. CCC(=O)N1CC[C@H](Oc2ccc3c(c2)N(c2cnc(OC)c(C(F)(F)F)c2)CCO3)C1

Solution:
[1.11, 0.90, 1.26]

Respectfully, I request log10 of IC50 for each entry included below.
1. COc1ncc(N2CCOc3ccc(O[C@H]4CCN(C(=O)c5ccc(=O)n(C)c5)C4)cc32)cc1C#N
2. COc1ncc(N2c3cc(O[C@H]4CCN(C(=O)C5CCOCC5)C4)ccc3OCC2C)cc1C#N (some centres unmarked) [Example C6]

Solution:
1.08
2.26

Origin of measurements: patent US9539260B2
